Value source: ChEMBL document CHEMBL5608182

Please respond with reported EC50 for every item in the list.
- TEST_TARGET: GABA-A receptor; alpha-1/beta-2/gamma-2 (Homo sapiens, UniProt P14867+P18507+P47870)
- Sequence (P14867 whole entry): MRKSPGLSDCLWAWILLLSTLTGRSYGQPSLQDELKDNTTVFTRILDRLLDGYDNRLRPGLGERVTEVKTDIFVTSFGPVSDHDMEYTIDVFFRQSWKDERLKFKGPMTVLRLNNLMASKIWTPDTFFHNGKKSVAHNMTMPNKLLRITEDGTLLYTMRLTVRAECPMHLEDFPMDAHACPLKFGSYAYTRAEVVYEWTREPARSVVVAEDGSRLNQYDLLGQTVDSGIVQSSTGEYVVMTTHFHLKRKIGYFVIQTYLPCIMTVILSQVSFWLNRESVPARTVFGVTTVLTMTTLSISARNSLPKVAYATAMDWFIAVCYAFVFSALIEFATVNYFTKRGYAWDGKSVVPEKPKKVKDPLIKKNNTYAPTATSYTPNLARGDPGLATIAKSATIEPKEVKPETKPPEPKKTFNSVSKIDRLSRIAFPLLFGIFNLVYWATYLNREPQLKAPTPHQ
- Sequence (P47870 whole entry): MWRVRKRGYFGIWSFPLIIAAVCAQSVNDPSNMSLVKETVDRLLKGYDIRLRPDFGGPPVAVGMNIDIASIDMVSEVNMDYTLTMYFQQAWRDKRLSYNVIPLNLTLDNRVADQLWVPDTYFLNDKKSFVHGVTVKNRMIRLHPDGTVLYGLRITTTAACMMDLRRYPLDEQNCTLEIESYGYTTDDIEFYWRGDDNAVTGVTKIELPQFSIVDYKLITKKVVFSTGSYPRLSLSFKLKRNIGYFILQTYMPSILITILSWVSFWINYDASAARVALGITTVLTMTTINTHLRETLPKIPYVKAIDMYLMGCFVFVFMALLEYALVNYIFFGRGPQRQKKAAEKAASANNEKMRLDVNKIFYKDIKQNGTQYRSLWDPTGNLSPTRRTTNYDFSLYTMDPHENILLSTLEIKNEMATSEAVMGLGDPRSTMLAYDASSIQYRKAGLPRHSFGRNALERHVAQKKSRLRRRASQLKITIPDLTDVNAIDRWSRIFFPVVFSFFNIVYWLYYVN
- Sequence (P18507 whole entry): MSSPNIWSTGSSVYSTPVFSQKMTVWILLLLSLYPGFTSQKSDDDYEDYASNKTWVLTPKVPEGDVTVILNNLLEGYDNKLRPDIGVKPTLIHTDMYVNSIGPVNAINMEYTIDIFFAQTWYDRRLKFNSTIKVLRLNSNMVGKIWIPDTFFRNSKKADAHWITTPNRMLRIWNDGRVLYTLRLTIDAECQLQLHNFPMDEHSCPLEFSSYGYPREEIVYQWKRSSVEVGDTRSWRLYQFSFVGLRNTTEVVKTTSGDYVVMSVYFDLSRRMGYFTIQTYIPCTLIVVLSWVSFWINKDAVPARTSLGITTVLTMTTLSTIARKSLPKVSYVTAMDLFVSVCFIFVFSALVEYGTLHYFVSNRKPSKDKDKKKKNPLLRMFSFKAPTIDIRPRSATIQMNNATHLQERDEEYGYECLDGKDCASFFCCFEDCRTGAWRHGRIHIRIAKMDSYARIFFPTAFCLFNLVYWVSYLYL
- ASSAY_OVERVIEW: Positive allosteric modulation of synaptic alpha1beta2gamma2 GABA-A receptor (unknown origin) transfected in LTK cells assessed as potentiation of GABA-induced peak current amplitude at -80 mV holding potential preincubated for 30 secs followed by GABA stimulation for 2 secs by Q-patch assay

Returns the measured EC50 for the input molecule. Input: C[C@@]1(O)CC[C@H]2[C@H](CC[C@@H]3[C@@H]2CC[C@]2(C)[C@@H](C(=O)Cn4cnn(-c5cc(F)nc(F)c5)c4=O)CC[C@@H]32)C1
141 nM

Returns the measured EC50 for the input molecule. Input: C[C@@]1(O)CC[C@H]2[C@H](CC[C@@H]3[C@@H]2CC[C@]2(C)[C@@H](C(=O)Cn4cnn(-c5ccc6c(c5)OCO6)c4=O)CC[C@@H]32)C1
139 nM

Returns the measured EC50 for the input molecule. Input: C[C@@]1(O)CC[C@H]2[C@H](CC[C@@H]3[C@@H]2CC[C@]2(C)[C@@H](C(=O)Cn4cnn(CC5CC5)c4=O)CC[C@@H]32)C1
163 nM
